System: Bacillus subtilis
assaySummary: Antibacterial activity against Bacillus subtilis NBRC 3513 after overnight incubation by microplate dilution method
Assay type: functional
Square brackets hold non-standard residues; d marks the D form. Peptide text beside a SMILES is read from it. Orn = NCCC[C@H](N)C(=O)O
measuredQuantity: MIC (µg/mL)

Qu. Tell me reported MIC for CC(C)C[C@@H]1NC(=O)[C@H](CCCN)NC(=O)[C@H](C(C)C)NC(=O)[C@@H]2CCCN2C(=O)[C@@H](CCCCN)NC(=O)[C@H](CC(C)C)NC(=O)[C@@H](CCCN)NC(=O)[C@H](C(C)C)NC(=O)[C@@H]2CCCN2C(=O)[C@@H](CCCCN)NC1=O , tested with Bacillus subtilis.
Ans. 6.25

Qu. Tell me reported MIC for CC(C)C[C@@H]1NC(=O)[C@H](CCCN)NC(=O)[C@H](C(C)C)NC(=O)[C@@H]2CCCN2C(=O)[C@@H](Cc2ccccc2)NC(=O)[C@H](CC(C)C)NC(=O)[C@H](CCCN)NC(=O)[C@H](C(C)C)NC(=O)[C@@H]2CCCN2C(=O)NC(=O)[C@H](Cc2ccccc2)NC(=O)[C@H](CCCCN)NC1=O , tested with Bacillus subtilis.
Ans. 3.13

Qu. Tell me reported MIC for CC(C)C[C@@H]1NC(=O)[C@H](CCCN)NC(=O)[C@H](C(C)C)NC(=O)[C@@H]2CCCN2C(=O)[C@@H](Cc2ccccc2)NC(=O)[C@H](CC(C)C)NC(=O)[C@H](CCCN)NC(=O)[C@H](C(C)C)NC(=O)[C@@H]2CCCN2C(=O)[C@@H](Cc2ccccc2)NC1=O (cyclo(V[Orn]L[dF]PV[Orn]L[dF]P)) , tested with Bacillus subtilis.
Ans. 3.13

Qu. Tell me reported MIC for CC(C)C[C@@H]1NC(=O)[C@H](CCCN)NC(=O)[C@H](C(C)C)NC(=O)[C@@H]2CCCN2C(=O)[C@@H](Cc2ccccc2)NC(=O)[C@H](CC(C)C)NC(=O)[C@H](CCCN)NC(=O)[C@H](C(C)C)NC(=O)[C@@H]2CCCN2C(=O)NC(=O)[C@H](Cc2ccccc2)NC(=O)[C@H](CCCN)NC1=O , tested with Bacillus subtilis.
Ans. 6.25

Qu. Tell me reported MIC for CC(C)C[C@@H]1NC(=O)[C@H](CCCN)NC(=O)[C@H](C(C)C)NC(=O)[C@H](CCCCN)NC(=O)[C@@H](Cc2ccccc2)NC(=O)[C@H](CC(C)C)NC(=O)[C@@H](CCCN)NC(=O)[C@H](C(C)C)NC(=O)[C@H](CCCCN)NC(=O)[C@@H](Cc2ccccc2)NC1=O , tested with Bacillus subtilis.
Ans. 6.25

====

Tested on: Escherichia coli
assaySummary: Antibacterial activity against Escherichia coli ATCC 25922 after 24 hrs by broth dilution method
Format: functional
protocolConditions: ATCC 25922, 24 h
measuredQuantity: MIC (µg/mL)

Qu. Please report the recorded MIC for CC(C)C[C@@H]1NC(=O)[C@H](CCCN)NC(=O)[C@H](C(C)C)NC(=O)[C@@H]2CCCN2C(=O)[C@@H](Cc2cn(Cc3cccc4ccccc34)nn2)NC(=O)[C@H](CC(C)C)NC(=O)[C@@H](CCCN)NC(=O)[C@H](C(C)C)NC(=O)[C@@H]2CCCN2C(=O)[C@@H](Cc2ccccc2)NC1=O .
Ans. 64

A. CC(C)C[C@@H]1NC(=O)[C@H](CCCN)NC(=O)[C@H](C(C)C)NC(=O)[C@@H]2CCCN2C(=O)[C@@H](Cc2c[nH]cn2)NC(=O)[C@H](CC(C)C)NC(=O)[C@@H](CCCN)NC(=O)[C@H](C(C)C)NC(=O)[C@@H]2CCCN2C(=O)[C@@H](Cc2ccccc2)NC1=O
B. CC(C)C[C@@H]1NC(=O)[C@H](CCCN)NC(=O)[C@H](C(C)C)NC(=O)[C@@H]2CCCN2C(=O)[C@@H](Cc2c[nH]nn2)NC(=O)[C@H](CC(C)C)NC(=O)[C@@H](CCCN)NC(=O)[C@H](C(C)C)NC(=O)[C@@H]2CCCN2C(=O)[C@@H](Cc2ccccc2)NC1=O
Qu. Hi there! Just curious which has the higher MIC between A and B . // output: label of the selected item
Ans. B
